test: Permeability across apical to basolateral side in human Caco-2 cells; format: ADME, cell-based; settings: read-out: permeability

# smiles.record, Papp A→B (×10⁻⁶ cm/s)
rows = [
    ("Nc1ncncc1-c1ccnc2c1cnn2-c1ccc(F)cc1", 28.2),
]

----------
target: Steroid 17-alpha-hydroxylase/17,20 lyase (Homo sapiens, UniProt P05093); experiment: Inhibition of human CYP17A1 lyase activity; type: ADME
Sequence (P05093 whole entry): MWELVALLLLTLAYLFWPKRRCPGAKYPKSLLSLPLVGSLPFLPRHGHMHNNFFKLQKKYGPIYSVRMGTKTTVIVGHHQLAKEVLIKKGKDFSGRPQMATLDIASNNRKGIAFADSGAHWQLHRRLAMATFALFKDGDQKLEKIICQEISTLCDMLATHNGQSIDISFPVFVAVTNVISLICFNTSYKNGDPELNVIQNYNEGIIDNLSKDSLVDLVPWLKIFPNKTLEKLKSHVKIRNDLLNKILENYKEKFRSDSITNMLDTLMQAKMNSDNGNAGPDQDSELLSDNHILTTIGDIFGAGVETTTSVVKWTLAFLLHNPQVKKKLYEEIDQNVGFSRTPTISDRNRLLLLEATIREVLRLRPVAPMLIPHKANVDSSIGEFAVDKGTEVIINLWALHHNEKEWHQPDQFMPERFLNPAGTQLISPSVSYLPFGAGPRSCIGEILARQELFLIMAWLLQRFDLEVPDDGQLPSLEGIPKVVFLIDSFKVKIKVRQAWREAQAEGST
pIC50: −log10 of the molar value.

# smiles.record, pIC50
records = [
    ("Nc1ncncc1-c1ccnc2c1cnn2-c1ccc(F)cc1", 8.10),
]

----------
assay: Metabolic stability in human liver microsomes assessed as parent compound remaining relative to control; format: ADME, Microsome; also: time not given here
Quick reference for Stability among some compounds
test.readout: Stability (%)

# smiles.record, measurement.unit, result.number
data = [
    ("COc1ccncc1-c1ccnc2c1cnn2-c1ccc(F)cc1", "%", 86),
    ("Cc1ccncc1-c1cccc2c(-c3ccccc3)csc12", "%", 84),
    ("Nc1ccncc1-c1ccnc2c1cnn2-c1ccc(F)cc1", "%", 99),
    ("Nc1ncncc1-c1ccnc2c1cnn2-c1ccc(F)cc1", "%", 100),
    ("Nc1ncncc1-c1ccnc2c1cnn2-c1ccccn1", "%", 100),
    ("COc1cccc(-n2ncc3c(-c4cnccc4C)ccnc32)c1", "%", 21),
]
